Values compiled from ChEMBL document CHEMBL3988442.

Tested on: Trypanosoma cruzi
test.protocol: Trypanosoma cruzi phosphomannomutase and mannose-1-phosphate guanylyltransferase assay
Type: functional
Design: scale not given: direction of the effect not stated beside the values
measurement.parameters: 10 µM
# maps each entry to its Percent Effect
// note: answer is a bare numeric in %

Some solved cases for reference:
Cc1ncc2c(n1)CN(Cc1nnc(-c3occc3C)o1)CC2	6.04
COc1cc(C(=O)N2CCCS2(=O)=O)cc(Cl)c1OC	-0.602
CCOCC1CN(Cc2ccc(OC)cc2)Cc2nn(C)cc21 (stereo not drawn)	-1.46
CN(C)[C@H]1CCCCN(C(=O)CCc2csc(N)n2)C1	1.46
COCCn1ccnc1C1CCCN(C(=O)CSCC2CC2)C1 (stereo not drawn)	4.37
c1ccc(-c2cnc(CNCC3CCCN3c3cccnn3)o2)cc1 (stereo not drawn)	1.86

Okay, now this compound:
Let me know recorded Percent Effect for Cc1nc(C)n(CC2CN(CC(=O)Nc3cccnc3)CCO2)n1 (stereo not drawn) , thanks.
-0.486
